Data origin, for the record: patent US11464749B2

- Test system: Staphylococcus aureus (MRSA)
- assay-info: Broth microdilution MIC (Example 11)
- experimental-setup: MRSA, S. aureus MMX 5373, MRSA Lev^R Cip^R CC^R Ery^R Ox^R
Below, each of the compounds is paired with its reported MIC value.
Kindly answer with a numeric value in µg/mL, unit omitted.

Examples from the recorded data:
C[C@H]1COc2c(N3CCN(C)CC3)c(F)cc3c(=O)c(C(=O)O)cn1c23 [Levofloxacin, reference compound] | 32
CN[C@H](CC(C)C)C(=O)N[C@H]1C(=O)N[C@@H](CC(N)=O)C(=O)N[C@H]2C(=O)N[C@H]3C(=O)N[C@H](C(=O)N[C@H](C(=O)O)c4cc(O)cc(O)c4-c4cc3ccc4O)[C@H](O)c3ccc(c(Cl)c3)Oc3cc2cc(c3O[C@@H]2O[C@H](CO)[C@@H](O)[C@H](O)[C@H]2O[C@H]2C[C@](C)(N)[C@H](O)[C@H](C)O2)Oc2ccc(cc2Cl)[C@H]1O | 2

--- query ---
Q) Given the entry C[C@@H](O)[C@H]1C(=O)N2C(C(=O)O)=C(S[C@@H]3CN[C@H](C(=O)N(C)C)C3)[C@H](C)[C@H]12 [Meropenem, reference compound] , what MIC was observed with Staphylococcus aureus (MRSA)?
A) 32

###

- System: vancomycin-intermediate Staphylococcus aureus (VISA)
- assay-info: Broth microdilution MIC (Example 12)
- experimental-setup: S. aureus NRS 27
Below, each of the compounds is paired with its reported MIC value.
Kindly answer with a numeric value in µg/mL, unit omitted.

Examples from the recorded data:
CC(=O)NC[C@H]1CN(c2ccc(N3CCOCC3)c(F)c2)C(=O)O1 | 2
C[C@H]1COc2c(N3CCN(C)CC3)c(F)cc3c(=O)c(C(=O)O)cn1c23 | 8
CN[C@H](CC(C)C)C(=O)N[C@H]1C(=O)N[C@@H](CC(N)=O)C(=O)N[C@H]2C(=O)N[C@H]3C(=O)N[C@H](C(=O)N[C@H](C(=O)O)c4cc(O)cc(O)c4-c4cc3ccc4O)[C@H](O)c3ccc(c(Cl)c3)Oc3cc2cc(c3O[C@@H]2O[C@H](CO)[C@@H](O)[C@H](O)[C@H]2O[C@H]2C[C@](C)(N)[C@H](O)[C@H](C)O2)Oc2ccc(cc2Cl)[C@H]1O | 2

--- query ---
Q) For the compound shown here, CCCCCCCCCC(=O)NC(Cc1c[nH]c2ccccc12)C(=O)NC(CC(N)=O)C(=O)NC(CC(=O)O)C(=O)NC1C(=O)NCC(=O)NC(CCCN)C(=O)NC(CC(=O)O)C(=O)NC(C)C(=O)NC(CC(=O)O)C(=O)NCC(=O)NC(CO)C(=O)NC(C(C)CC(=O)O)C(=O)NC(CC(=O)c2ccccc2N)C(=O)OC1C (centres unmarked) , give the reported MIC.
A) 0.25

###

Below, each of the molecules is paired with its reported MIC value.
- System: Acinetobacter baumannii
- assay-info: Broth microdilution MIC (Example 12)
- experimental-setup: A. baumannii CDC 312; OXA
Kindly answer with a numeric value in µg/mL, unit omitted.

NCC[C@H](O)C(=O)N[C@@H]1C[C@H](N)[C@@H](O[C@H]2O[C@H](CN)[C@@H](O)[C@H](O)[C@H]2O)[C@H](O)[C@H]1O[C@H]1O[C@H](CO)[C@@H](O)[C@H](N)[C@H]1O | 1
C[C@@H](O)[C@H]1C(=O)N2C(C(=O)O)=C(S[C@@H]3CN[C@H](C(=O)N(C)C)C3)[C@H](C)[C@H]12 | 4

--- query ---
Q) For the molecule shown here, "C[C@H]1COc2c(N3CCN(C)CC3)c(F)cc3c(=O)c(C(=O)O)cn1c23" , give the reported MIC.
A) 2

###

- System: Klebsiella pneumoniae
- assay-info: Broth microdilution MIC (Example 12)
- experimental-setup: K. pneumoniae CDC 115; ESBL/KPC
Below, each of the compounds is paired with its reported MIC value.

Examples from the recorded data:
C[C@H]1COc2c(N3CCN(C)CC3)c(F)cc3c(=O)c(C(=O)O)cn1c23 [LVX] | >8 µg/mL
NCC[C@H](O)C(=O)N[C@@H]1C[C@H](N)[C@@H](O[C@H]2O[C@H](CN)[C@@H](O)[C@H](O)[C@H]2O)[C@H](O)[C@H]1O[C@H]1O[C@H](CO)[C@@H](O)[C@H](N)[C@H]1O [AMK] | 0.5 µg/mL

Q) Given the entry CC(C)(O/N=C(\C(=O)N[C@@H]1C(=O)N2C(C(=O)[O-])=C(C[n+]3ccccc3)CS[C@H]12)c1csc(N)n1)C(=O)O [CAZ] , what MIC was observed with Klebsiella pneumoniae?
A) >64 µg/mL

Q) Another compound to look at: C[C@@H](O)[C@H]1C(=O)N2C(C(=O)O)=C(S[C@@H]3CN[C@H](C(=O)N(C)C)C3)[C@H](C)[C@H]12 [MEM]
A) >8 µg/mL

###

- Test system: Klebsiella pneumoniae
- assay-info: Broth microdilution MIC (Example 11)
- experimental-setup: K. pneumoniae MMX 5979, NDM-1, Lev^R, MEM^R, CAZ^R, Gm^R
measurement-type: MIC

CC(S)C(C)S.[Bi] (stereo not shown) | 1 µg/mL
C[C@H]1COc2c(N3CCN(C)CC3)c(F)cc3c(=O)c(C(=O)O)cn1c23 [Levofloxacin, reference compound] | > 64 µg/mL
CC(C)(O/N=C(\C(=O)N[C@@H]1C(=O)N2C(C(=O)[O-])=C(C[n+]3ccccc3)CS[C@H]12)c1csc(N)n1)C(=O)O | > 32 µg/mL

--- query ---
Q) For the compound shown here, C[C@@H](O)[C@H]1C(=O)N2C(C(=O)O)=C(S[C@@H]3CN[C@H](C(=O)N(C)C)C3)[C@H](C)[C@H]12 [Meropenem, reference compound] , give the reported MIC.
A) > 64 µg/mL

###

- System: S. agalactiae
- assay-info: Broth microdilution MIC (Example 11)
- experimental-setup: Streptococcus agalactiae, S. agalactiae MMX 4077; ERY^R CC^R
measurement-type: MIC (µg/mL)
Kindly answer with a numeric value in µg/mL, unit omitted.

CC(S)C(C)S.[Bi] (stereo not shown) | 0.25

--- query ---
Q) For the compound shown here, C[C@@H](O)[C@H]1C(=O)N2C(C(=O)O)=C(S[C@@H]3CN[C@H](C(=O)N(C)C)C3)[C@H](C)[C@H]12 [Meropenem, reference compound] , give the reported MIC.
A) 0.06

###

- Tested on: Staphylococcus aureus (MRSA)
- assay-info: Broth microdilution MIC (Example 11)
- experimental-setup: MRSA, S. aureus MMX 5373, MRSA Lev^R Cip^R CC^R Ery^R Ox^R
Below, each of the molecules is paired with its reported MIC value.

Q) For the molecule shown here, "CC(C)(O/N=C(\C(=O)N[C@@H]1C(=O)N2C(C(=O)[O-])=C(C[n+]3ccccc3)CS[C@H]12)c1csc(N)n1)C(=O)O" , give the reported MIC.
A) > 32 µg/mL

Q) Another molecule to look at: "CC[C@H]1OC(=O)[C@H](C)[C@@H](O[C@H]2C[C@@](C)(OC)[C@@H](O)[C@H](C)O2)[C@H](C)[C@@H](O[C@@H]2O[C@H](C)C[C@H](N(C)C)[C@H]2O)[C@](C)(O)C[C@@H](C)C(=O)[C@H](C)[C@@H](O)[C@]1(C)O"
A) > 64 µg/mL

Q) Another molecule to look at: "CCC[C@@H]1C[C@@H](C(=O)N[C@@H]([C@H]2O[C@H](SC)[C@H](O)[C@@H](O)[C@H]2O)[C@H](C)Cl)N(C)C1"
A) > 32 µg/mL
